# Tested on: Guinea-Pig Bladder (GPB) Cells
# test: Membrane Hyperpolarization (MHP) assay, DiBAC(4)3 / FLIPR
# condition-label: membrane hyperpolarization, GPB cells
metric: log10 EC50 (log10 of the value in nM)

molecule: O=C1COCC2=C1C(c1ccc(Cl)c([N+](=O)[O-])c1)C1=C(CCS1(=O)=O)N2 (single isomer, unassigned; (-)) [Example 19]
system-tested: Guinea-Pig Bladder (GPB) Cells
log10 EC50: 3.26
--
molecule: O=C1COCC2=C1C(c1ccc(C(F)(F)F)c(I)c1)C1=C(COCC1=O)N2 [Example 62]
system-tested: Guinea-Pig Bladder (GPB) Cells
log10 EC50: 1.76
--
molecule: O=C1COCC2=C1C(c1ccc(F)c(Br)c1)C1=C(COCC1=O)N2 [Example 1]
system-tested: Guinea-Pig Bladder (GPB) Cells
log10 EC50: 1.43
--
molecule: O=C1COCC2=C1C(c1cc(Br)c(F)cc1O)C1=C(COCC1=O)N2 [Example 58]
system-tested: Guinea-Pig Bladder (GPB) Cells
log10 EC50: 1.66
--
molecule: O=C1CCC2=C1C(c1ccc(F)c(Br)c1)C1=C(CSCC1=O)N2 (centres unmarked) [Example 51]
system-tested: Guinea-Pig Bladder (GPB) Cells
log10 EC50: 2.08
--
molecule: O=C1COCC2=C1C(c1ccc(Br)c(Br)c1)C1=C(COCC1=O)N2 [Example 55]
system-tested: Guinea-Pig Bladder (GPB) Cells
log10 EC50: 0.59
--
molecule: O=C1COCC2=C1C(c1ccc(Cl)c(C(F)(F)F)c1)C1=C(COCC1=O)N2 [Example 56]
system-tested: Guinea-Pig Bladder (GPB) Cells
log10 EC50: 1.18
--
molecule: O=C1COCC2=C1C(c1ccc(Br)c(Cl)c1)C1=C(COCC1=O)N2 [Example 60]
system-tested: Guinea-Pig Bladder (GPB) Cells
log10 EC50: 1.36

====

# Test system: Guinea-Pig Bladder (GPB) Cells
# test: Membrane Hyperpolarization (MHP) assay, DiBAC(4)3 / FLIPR
# condition-label: maximal steady-state hyperpolarization, normalized to 10 μM P1075 (100%)
The following compounds are listed with their measured Maximal Response (% P1075) values.

compound: O=C1COCC2=C1C(c1cc(Br)ccc1O)C1=C(COCC1=O)N2
Maximal Response (% P1075): 83 % P1075

compound: O=C1COCC2=C1C(c1ccc([N+](=O)[O-])s1)C1=C(COCC1=O)N2
Maximal Response (% P1075): 98 % P1075

compound: N#Cc1cccc(C2C3=C(COCC3=O)NC3=C2S(=O)(=O)CC3)c1 (stereo not shown) [Example 14]
Maximal Response (% P1075): 99 % P1075

compound: O=C1COCC2=C1C(c1ccc(Cl)c(C(F)(F)F)c1)C1=C(COCC1=O)N2
Maximal Response (% P1075): 96 % P1075

compound: O=C1COCC2=C1C(c1cc(Br)c(F)cc1O)C1=C(COCC1=O)N2
Maximal Response (% P1075): 94 % P1075

compound: Cc1ccc(C2C3=C(COCC3=O)NC3=C2C(=O)COC3)cc1I
Maximal Response (% P1075): 101 % P1075

compound: O=C1COCC2=C1C(c1ccc(Br)c(Cl)c1)C1=C(COCC1=O)N2
Maximal Response (% P1075): 88 % P1075

compound: N#Cc1cccc(C2C3=C(COCC3=O)NC3=C2S(=O)(=O)CC3)c1 (single isomer, unassigned; (-)) [Example 16]
Maximal Response (% P1075): 57 % P1075

compound: N#Cc1cccc(C2C3=C(COCC3=O)NC3=C2S(=O)(=O)CC3)c1 (single isomer, unassigned; (+)) [Example 15]
Maximal Response (% P1075): 90 % P1075

compound: O=C1COCC2=C1C(c1ccc3nonc3c1)C1=C(COCC1=O)N2
Maximal Response (% P1075): 88 % P1075

compound: Cc1ccc(C2C3=C(COCC3=O)NC3=C2C(=O)COC3)cc1[N+](=O)[O-]
Maximal Response (% P1075): 94 % P1075

compound: N#Cc1cccc(C2C3=C(COCC3=O)NC3=C2C(=O)COC3)c1
Maximal Response (% P1075): 87 % P1075

compound: O=C1COCC2=C1C(c1ccc(F)c(Br)c1)C1=C(CCS1(=O)=O)N2 (single isomer, unassigned; (-)) [Example 13]
Maximal Response (% P1075): 101 % P1075

compound: O=C1COCC2=C1C(c1ccc(Cl)c([N+](=O)[O-])c1)C1=C(COCC1=O)N2
Maximal Response (% P1075): 98 % P1075

compound: O=C1COCC2=C1C(c1ccc(Cl)c(Br)c1)C1=C(COCC1=O)N2
Maximal Response (% P1075): 97 % P1075

compound: O=C1COCC2=C1C(c1ccc(Br)c(Br)c1)C1=C(COCC1=O)N2
Maximal Response (% P1075): 108 % P1075

compound: O=C1CCC2=C1C(c1ccc(F)c(Br)c1)C1=C(CSCC1=O)N2 (stereo not shown)
Maximal Response (% P1075): 88 % P1075

compound: O=C1COCC2=C1C(c1ccc(F)c(Br)c1)C1=C(CCS1(=O)=O)N2 (single isomer, unassigned; (+)) [Example 12]
Maximal Response (% P1075): 101 % P1075

compound: O=C1COCC2=C1C(c1ccc(Cl)c(Cl)c1)C1=C(COCC1=O)N2
Maximal Response (% P1075): 92 % P1075

The reported measurements were obtained from patent US6642222B2.
